Hi there, I'd appreciate the recorded IC50 for every entry that follows.
# Test system: human lung cancer strain NCI-H441
# Assay conditions: read-out: NCI-H441 IC50; NCI-H441 cells, 4 days, CellTiter-Glo
*1 amine or outer side, *2 acyl side, *3 side chain or, on linkers, in order; H or OH if unused. Where a SMILES comes first, the peptide text is derived from it. Bridges are numbered along the chain shown (N, C = ends). [ ]: non-standard residue; d: D form. The star is where a group is joined. hPhe(3-Cl-4-CF3) = N[C@@H](CCc1ccc(C(F)(F)F)c(Cl)c1)C(=O)O; X5 = CCCN([C@H](C(=O)[*:2])C1CCCC1)[*:1]; NMeGly(cPent) = CN[C@H](C(=O)O)C1CCCC1; NMeD = CN[C@@H](CC(=O)O)C(=O)O; NMeL = CN[C@@H](CC(C)C)C(=O)O; Morpholide = C1CN(*)CCO1; NMeA = CN[C@@H](C)C(=O)O; Ac5c = NC1(C(=O)O)CCCC1; Aze = O=C(O)[C@@H]1CCN1; Sar = CNCC(=O)O
Numbers only, in nM.

// solved cases for IC50 follow
CCO[C@@H]1C[C@H]2C(=O)NC3(CCC3)C(=O)N(C)[C@@H](C3CCCC3)C(=O)N(C)[C@@H](C(C)C)CC(=O)N(C)[C@@H](CC3CC3)C(=O)N[C@@H]([C@@H](C)CC)C(=O)N(C)CC(=O)N(C)[C@H]3C/C=C\CCN(C3=O)[C@@H](Cc3ccc(C(F)(F)F)cc3)C(=O)N(C)CC(=O)N[C@@H](CCc3cc(F)c(C(F)(F)F)c(F)c3)C(=O)N2C1 :: 18.1
CCCN1C(=O)[C@@H]2CCN2C(=O)[C@H](C)N(C)C(=O)[C@H]([C@@H](C)CC)NC(=O)[C@H](CC(C)C)N(C)C(=O)C[C@@H](C(=O)N2CCOCC2)N(C)C(=O)[C@H](C2CCCC2)N(C)C(=O)C2(CCCC2)NC(=O)[C@@H]2CCCN2C(=O)[C@H](CCc2ccc(C(F)(F)F)c(Cl)c2)NC(=O)CN(C)C(=O)[C@@H]1C1CCCC1 [PP0054] ([NMeL]I[NMeA][Aze][X5][Sar][hPhe(3-Cl-4-CF3)]P[Ac5c][NMeGly(cPent)][NMeD]-Morpholide; lactam N-11) :: 82
CCO[C@@H]1C[C@H]2C(=O)NC3(CCC3)C(=O)N(C)[C@@H](C3CCCC3)C(=O)N(C)[C@H](C(=O)N(C)C)CC(=O)N(C)[C@@H](CC3CC3)C(=O)N[C@@H]([C@@H](C)CC)C(=O)N(C)CC(=O)N(C)[C@H]3C/C=C\CCN(C3=O)[C@@H](Cc3ccc(C)cc3)C(=O)N(C)CC(=O)N[C@@H](CCc3cc(F)c(C(F)(F)F)c(F)c3)C(=O)N2C1 :: 18.7

Let's switch to this compound now.
Reported IC50, compound CC[C@H](C)[C@@H]1NC(=O)[C@H](CC2CC2)N(C)C(=O)C[C@@H](C(=O)N(C)C)N(C)C(=O)[C@H](C2CCCC2)N(C)C(=O)C2(CCC2)NC(=O)[C@@H]2C[C@@H](F)CN2C(=O)[C@H](CCc2cc(F)c(C(F)(F)F)c(F)c2)NC(=O)CN(C)C(=O)[C@H](Cc2ccc(C(F)(F)F)cc2)N2CC/C=C\C[C@@H](C2=O)N(C)C(=O)CN(C)C1=O : ____
10.7
